# assay.protocol: Microsomal stability (human microsomes)
# Assay type: in vitro ADME
# cond: pH 7.4, 1 μM compound, 0.5 mg/mL protein, 1 mM NADPH, 37° C., read-out: Human Microsome Clint
property.name: microsomal CLint at 1 μM (µL/min/mg)

a = C#CC(C)(C)NC(=O)c1cc(NC(=O)Cc2cccc3cc[nH]c23)ccn1 [Compound B, reference compound]
b = CC1(NC(=O)c2cc(NC(=O)Cc3ccc4cc[nH]c4c3)ccn2)CC(F)(F)C1
Of the two listed items, which has the higher microsomal CLint at 1 μM? First: a Second: b Selection: enter the item's label.
b
(b: 199 µL/min/mg, a: 46 µL/min/mg)
